# System: Staphylococcus aureus
# assay_comment: Antibacterial activity against Staphylococcus aureus ATCC 43300
# Assay type: functional
assay_endpoint: MIC50

Example entries and their recorded answers appear below.
[
  {
    "smi": "CCN1CC[C@@H](CN(Cc2ccccc2)Cc2cccc([N+](=O)[O-])c2)OC1=O",
    "MIC50": "22 µg/mL"
  },
  {
    "smi": "CCN1CC[C@@H](CN(Cc2ccccc2)Cc2ccc(Cl)c(Cl)c2)OC1=O",
    "MIC50": "6.56 µg/mL"
  }
]

What is its MIC50 for Staphylococcus aureus? Entry: CCN1CC[C@@H](CN(Cc2ccccc2)Cc2ccccc2[N+](=O)[O-])OC1=O
100 µg/mL

====

# System: Staphylococcus aureus
# assay_comment: Antibacterial activity against Staphylococcus aureus ATCC 43300
# Type: functional
The source made the active and inactive calls. The rule behind the calls is not given here.
assay_endpoint: MIC50

Example entries and their recorded answers appear below.
[
  {
    "smi": "CCN1CC[C@@H](CN(Cc2ccccc2)Cc2ccc(F)cc2F)OC1=O",
    "MIC50": "50.5 µg/mL"
  },
  {
    "smi": "CN1CC[C@@H](CN(Cc2ccccc2)Cc2ccc(F)cc2F)OC1=O",
    "MIC50": "72 µg/mL"
  },
  {
    "smi": "CN1C[C@@H](CN(Cc2ccccc2)Cc2ccc(F)c(F)c2)OC1=O",
    "MIC50": "inactive"
  },
  {
    "smi": "CCN1CC[C@@H](CN(Cc2ccccc2)Cc2cccc(C#N)c2)OC1=O",
    "MIC50": "inactive"
  }
]

Fill blank: measured MIC50 of the molecule CCN1CC[C@@H](CN(Cc2ccccc2)Cc2ccc(C#N)cc2)OC1=O is ____.
59.5 µg/mL

====

# System: Enterococcus faecalis
# assay_comment: Antibacterial activity against Enterococcus faecalis ATCC 29212
# Type: functional
The source made the active and inactive calls. The calls are words filed in the database; no cut-off is given here.
assay_endpoint: MIC50

[
  {
    "smi": "CCN1CC[C@@H](CN(Cc2ccccc2)Cc2cccc([N+](=O)[O-])c2)OC1=O",
    "data_value": "47 µg/mL"
  },
  {
    "smi": "CN1C[C@@H](CN(Cc2ccccc2)Cc2ccc(F)c(F)c2)OC1=O",
    "data_value": "inactive"
  },
  {
    "smi": "CCN1CC[C@@H](CN(Cc2ccccc2)Cc2ccc(Cl)c(Cl)c2)OC1=O",
    "data_value": "inactive"
  },
  {
    "smi": "CCN1CC[C@@H](CN(Cc2ccccc2)Cc2ccc3ccccc3c2)OC1=O",
    "data_value": "13 µg/mL"
  },
  {
    "smi": "CCN1CC[C@@H](CN(Cc2ccccc2)Cc2ccc(C#N)cc2)OC1=O",
    "data_value": "12 µg/mL"
  },
  {
    "smi": "CN1CC[C@@H](CN(Cc2ccccc2)Cc2ccc3ccccc3c2)OC1=O",
    "data_value": "14.9 µg/mL"
  }
]

Fill blank: measured MIC50 of the molecule CCN1CC[C@@H](CN(Cc2ccccc2)Cc2ccc([N+](=O)[O-])cc2)OC1=O is ____.
45 µg/mL

Fill blank: measured MIC50 of the molecule CCN1CC[C@@H](CN(Cc2ccccc2)Cc2cccc3ccccc23)OC1=O is ____.
7.4 µg/mL

Fill blank: measured MIC50 of the molecule CCN1CC[C@@H](CN(Cc2ccccc2)Cc2ccccn2)OC1=O is ____.
inactive

Fill blank: measured MIC50 of the molecule CN1CC[C@@H](CN(Cc2ccccc2)Cc2ccc(C#N)cc2)OC1=O is ____.
238 µg/mL

Fill blank: measured MIC50 of the molecule CCN1CC[C@@H](CN(Cc2ccccc2)Cc2ccc(F)cc2)OC1=O is ____.
35 µg/mL

Fill blank: measured MIC50 of the molecule CN1C[C@@H](CN(Cc2ccccc2)Cc2ccc(F)cc2)OC1=O is ____.
inactive

Fill blank: measured MIC50 of the molecule CCN1CC[C@@H](CN(Cc2ccccc2)Cc2ccc(F)cc2F)OC1=O is ____.
59.5 µg/mL

Fill blank: measured MIC50 of the molecule CCN1CC[C@@H](CN(Cc2ccccc2)Cc2cc(F)cc(F)c2)OC1=O is ____.
37 µg/mL

====

# System: Enterococcus faecalis
# assay_comment: Antibacterial activity against Enterococcus faecalis ATCC 29212
# Type: functional
MIC50 reference

Example entries and their recorded answers appear below.
[
  {
    "smi": "CN1CC[C@@H](CN(Cc2ccccc2)Cc2ccc(F)cc2F)OC1=O",
    "data_value": "59.5 µg/mL"
  },
  {
    "smi": "CCN1CC[C@@H](CN(Cc2ccccc2)Cc2cccc(OC)c2)OC1=O",
    "data_value": "80.5 µg/mL"
  },
  {
    "smi": "CN1CC[C@@H](CN(Cc2ccccc2)Cc2ccc([N+](=O)[O-])cc2)OC1=O",
    "data_value": "119 µg/mL"
  },
  {
    "smi": "CN1CC[C@@H](CN(Cc2ccccc2)Cc2ccc(F)cc2)OC1=O",
    "data_value": "120 µg/mL"
  },
  {
    "smi": "CCN1CC[C@@H](CN(Cc2ccccc2)Cc2c(F)cccc2F)OC1=O",
    "data_value": "59.5 µg/mL"
  }
]

What is its MIC50 for Enterococcus faecalis? Entry: CN1CC[C@@H](CN(Cc2ccccc2)Cc2ccccc2[N+](=O)[O-])OC1=O
238 µg/mL

What is its MIC50 for Enterococcus faecalis? Entry: CN1CC[C@@H](CN(Cc2ccccc2)Cc2cccc(C#N)c2)OC1=O
7.4 µg/mL

What is its MIC50 for Enterococcus faecalis? Entry: CCN1CC[C@@H](CN(Cc2ccccc2)Cc2ccccc2[N+](=O)[O-])OC1=O
43 µg/mL

====

# System: Staphylococcus aureus
# assay_comment: Antibacterial activity against Staphylococcus aureus ATCC 43300
# Type: functional
Activity calls are given as the source filed them. The rule behind the calls is not given here.
assay_endpoint: MIC50

Example entries and their recorded answers appear below.
[
  {
    "smi": "CN1C[C@@H](CN(Cc2ccccc2)Cc2ccccc2Br)OC1=O",
    "MIC50": "21 µg/mL"
  },
  {
    "smi": "CCN1CC[C@@H](CN(Cc2ccccc2)Cc2cccc(OC)c2)OC1=O",
    "MIC50": "90 µg/mL"
  },
  {
    "smi": "CCN1CC[C@@H](CN(Cc2ccccc2)Cc2ccccc2C)OC1=O",
    "MIC50": "22.5 µg/mL"
  },
  {
    "smi": "CN1C[C@@H](CN(Cc2ccccc2)Cc2ccc(Br)cc2)OC1=O",
    "MIC50": "59.5 µg/mL"
  },
  {
    "smi": "CCN1CC[C@@H](CN(Cc2ccccc2)Cc2cccnc2)OC1=O",
    "MIC50": "inactive"
  },
  {
    "smi": "CN1CC[C@@H](CN(Cc2ccccc2)Cc2ccc(C#N)cc2)OC1=O",
    "MIC50": "inactive"
  },
  {
    "smi": "CN1CC[C@@H](CN(Cc2ccccc2)Cc2ccc([N+](=O)[O-])cc2)OC1=O",
    "MIC50": "inactive"
  },
  {
    "smi": "CCN1CC[C@@H](CN(Cc2ccccc2)Cc2c(F)cccc2F)OC1=O",
    "MIC50": "70 µg/mL"
  }
]

What is its MIC50 for Staphylococcus aureus? Entry: CN1CC[C@@H](CN(Cc2ccccc2)Cc2cccc(C#N)c2)OC1=O
238 µg/mL

What is its MIC50 for Staphylococcus aureus? Entry: CCN1CC[C@@H](CN(Cc2ccccc2)Cc2cc(F)cc(F)c2)OC1=O
45 µg/mL

====

MIC50 reference
# Test system: Enterococcus faecalis
# assay_comment: Antibacterial activity against Enterococcus faecalis ATCC 29212
# Assay type: functional

[
  {
    "smi": "CCN1CC[C@@H](CN(Cc2ccccc2)Cc2ccccc2C#N)OC1=O",
    "data_value": "33 µg/mL"
  },
  {
    "smi": "CCN1CC[C@@H](CN(Cc2ccccc2)Cc2cccnc2)OC1=O",
    "data_value": "238 µg/mL"
  },
  {
    "smi": "CN1C[C@@H](CN(Cc2ccccc2)Cc2ccccc2Br)OC1=O",
    "data_value": "7.4 µg/mL"
  },
  {
    "smi": "CN1CC[C@@H](CN(Cc2ccccc2)Cc2cccc([N+](=O)[O-])c2)OC1=O",
    "data_value": "119 µg/mL"
  },
  {
    "smi": "CCN1CC[C@@H](CN(Cc2ccccc2)Cc2ccccc2C)OC1=O",
    "data_value": "8.1 µg/mL"
  },
  {
    "smi": "CN1CC[C@@H](CN(Cc2ccccc2)Cc2ccccc2C#N)OC1=O",
    "data_value": "59.5 µg/mL"
  }
]

// below: MIC50 requested for another compound
Fill blank: measured MIC50 of the compound CCN1CC[C@@H](CN(Cc2ccccc2)Cc2cccc(C#N)c2)OC1=O is ____.
45 µg/mL

Taken from ChEMBL document CHEMBL1146952.
